Molecular target: CFTR (Homo sapiens)
Sequence (P13569 with tags, fused parts or gaps DEL508-508): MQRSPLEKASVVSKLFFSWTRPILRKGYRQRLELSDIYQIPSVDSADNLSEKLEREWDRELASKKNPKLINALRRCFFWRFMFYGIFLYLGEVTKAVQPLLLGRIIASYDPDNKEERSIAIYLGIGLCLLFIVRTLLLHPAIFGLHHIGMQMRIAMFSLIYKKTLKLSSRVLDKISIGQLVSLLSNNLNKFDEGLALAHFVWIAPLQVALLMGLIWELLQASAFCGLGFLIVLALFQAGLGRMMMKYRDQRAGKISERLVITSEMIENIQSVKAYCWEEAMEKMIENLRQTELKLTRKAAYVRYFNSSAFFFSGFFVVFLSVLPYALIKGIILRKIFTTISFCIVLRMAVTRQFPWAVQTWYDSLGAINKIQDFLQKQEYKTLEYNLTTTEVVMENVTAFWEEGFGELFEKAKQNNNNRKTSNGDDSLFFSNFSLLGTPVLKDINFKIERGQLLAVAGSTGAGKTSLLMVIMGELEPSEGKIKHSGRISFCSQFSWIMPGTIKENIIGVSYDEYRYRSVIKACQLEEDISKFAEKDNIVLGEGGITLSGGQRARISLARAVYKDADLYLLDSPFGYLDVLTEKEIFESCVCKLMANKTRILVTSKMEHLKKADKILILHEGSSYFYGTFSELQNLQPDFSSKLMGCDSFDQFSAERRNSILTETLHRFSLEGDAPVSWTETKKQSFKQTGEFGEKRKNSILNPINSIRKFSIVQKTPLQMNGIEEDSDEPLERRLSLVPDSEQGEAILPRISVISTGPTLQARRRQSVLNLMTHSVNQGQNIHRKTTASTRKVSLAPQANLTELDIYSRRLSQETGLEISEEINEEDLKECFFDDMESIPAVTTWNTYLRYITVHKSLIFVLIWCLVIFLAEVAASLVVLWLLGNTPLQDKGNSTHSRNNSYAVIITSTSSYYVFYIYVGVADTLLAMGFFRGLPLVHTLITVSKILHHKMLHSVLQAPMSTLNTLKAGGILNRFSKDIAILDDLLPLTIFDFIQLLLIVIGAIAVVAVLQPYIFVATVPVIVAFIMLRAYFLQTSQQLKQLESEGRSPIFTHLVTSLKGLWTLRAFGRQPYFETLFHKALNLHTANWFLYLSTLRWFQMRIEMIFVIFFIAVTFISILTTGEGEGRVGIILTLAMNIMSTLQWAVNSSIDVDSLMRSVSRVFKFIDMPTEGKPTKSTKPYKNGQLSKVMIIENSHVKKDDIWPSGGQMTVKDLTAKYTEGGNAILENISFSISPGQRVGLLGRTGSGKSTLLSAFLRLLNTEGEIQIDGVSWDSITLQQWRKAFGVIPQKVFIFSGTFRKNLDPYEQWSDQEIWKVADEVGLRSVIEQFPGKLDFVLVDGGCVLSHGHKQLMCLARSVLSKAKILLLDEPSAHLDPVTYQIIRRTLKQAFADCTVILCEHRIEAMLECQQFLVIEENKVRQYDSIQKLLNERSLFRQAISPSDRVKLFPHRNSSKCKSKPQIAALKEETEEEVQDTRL
Test: Membrane Potential Dye, Enteroid Assay A
Assay type: cell-based
Details: read-out: Ent. A EC50
Description: Base medium (ADF+++) consisted of Advanced […], 2 mM Glutamax, 10 mM HEPES, 1 μg/mL penicillin/streptomycin. […] Enteroid cells were incubated with test compound in IEMM for 18-24 hours at 37° C., 95% humidity and 5% CO2. […] Chloride transport was initiated by addition of Chloride Free Dye Stimulation Solution and the fluorescence signal was read for 15 min. […]
pEC50: −log10 of the molar value.
endpoint: pEC50

// solved cases for pEC50 follow
Q. Looking for the measured pEC50 of COC(=O)N1CCC2(CC1)CC(N1C(=O)c3cccc(c3)S(=O)(=O)Nc3nc(cc(-c4c(C)cccc4C)n3)OC[C@H]1CC(C)C)C2 , can you help?
A. > 6.00

Q. Same for Cc1cccc(C)c1-c1cc2nc(n1)NS(=O)(=O)c1cccc(c1)C(=O)N(C1CN(C3CC4(CC4)C3)C1)[C@H](CC(C)C)CO2
A. > 6.00

We next turn to a different compound, shown below.
Q. Looking for the measured pEC50 of Cc1cccc(C)c1-c1cc2nc(n1)NS(=O)(=O)c1cccc(c1)C(=O)N(C1CC3(CCN(C[C@H](O)CO)CC3)C1)[C@H](CC(C)C)CO2 , can you help?
A. > 6.00
